Attribution: patent US20260297029A1

Parameter remaining at 1 h: see the listing below.
# protocol: physchem
# Format: physicochemical
# setupConditions: PBS (pH 6.5), 60 min; read-out: Remaining Percentage
Remember to put the unit after the number in your answer.

chemicalString | remaining at 1 h
CN(C)C(=O)OC[N+](C)(C)CCc1c[nH]c2ccccc12 | 108%

Read the next record carefully.
Asked: // remaining at 1 h lookup, key: CC(C)(C)C(=O)OC[N+](C)(C)CCc1c[nH]c2ccccc12
Given back: 101%

---

# protocol: physchem
# Assay type: physicochemical
# setupConditions: PBS (pH 6.5), 30 min; read-out: Remaining Percentage
# Procedure: The half-life of the compounds was measured in PBS (pH 6.5), simulated gastric fluid (SGF) with pepsin, and SGF without pepsin.
assayMetric: remaining at 0.5 h (%)
All answers are understood in %, so give the number only.

Asked: // remaining at 0.5 h lookup, key: CN(C)C(=O)OC[N+](C)(C)CCc1c[nH]c2ccccc12
Given back: 97.7

Asked: // remaining at 0.5 h lookup, key: CC(C)(C)C(=O)OC[N+](C)(C)CCc1c[nH]c2ccccc12
Given back: 97.4

---

Parameter half-life: see the listing below.
# protocol: physchem
# Assay type: physicochemical
# setupConditions: SGF without pepsin; if calculated T1/2 < 0, reported as 9999 min; read-out: T1/2
All answers are understood in days, so give the number only.

molecule | half-life / days
CN(C)C(=O)OC[N+](C)(C)CCc1c[nH]c2ccccc12 | 10.9

Read the next record carefully.
Asked: // half-life lookup, key: CC[C@H]1OC(=O)[C@H](C)[C@@H](O[C@H]2C[C@@](C)(OC)[C@@H](O)[C@H](C)O2)[C@H](C)[C@@H](O[C@@H]2O[C@H](C)C[C@H](N(C)C)[C@H]2O)[C@](C)(O)C[C@@H](C)C(=O)[C@H](C)[C@@H](O)[C@]1(C)O [Erythromycin, reference compound]
Given back: 0.0254

---

# protocol: physchem
# Type: physicochemical
# setupConditions: SGF with pepsin, 240 min; read-out: Remaining Percentage
Parameter remaining at 4 h: see the listing below.
All answers are understood in %, so give the number only.

These recorded examples may help you get a feel for the data.
molecule | u | remaining at 4 h
CC[C@H]1OC(=O)[C@H](C)[C@@H](O[C@H]2C[C@@](C)(OC)[C@@H](O)[C@H](C)O2)[C@H](C)[C@@H](O[C@@H]2O[C@H](C)C[C@H](N(C)C)[C@H]2O)[C@](C)(O)C[C@@H](C)C(=O)[C@H](C)[C@@H](O)[C@]1(C)O [Erythromycin, reference compound] | % | 1
CN(C)C(=O)OC[N+](C)(C)CCc1c[nH]c2ccccc12 | % | 108

Read the next record carefully.
Asked: // remaining at 4 h lookup, key: CC(C)(C)C(=O)OC[N+](C)(C)CCc1c[nH]c2ccccc12
Given back: 96.1

---

# protocol: physchem
# Type: physicochemical
# setupConditions: pbs, pH 6.5
assayMetric: remaining at 0.5 h

Asked: // remaining at 0.5 h lookup, key: O=C(O)CCCc1ccc(N(CCCl)CCCl)cc1 [Chlorambucil, reference compound]
Given back: 59.4%

---

# protocol: physchem
# Format: physicochemical
# setupConditions: SGF with pepsin, 60 min; read-out: Remaining Percentage
Parameter remaining at 1 h: see the listing below.
All answers are understood in %, so give the number only.

These recorded examples may help you get a feel for the data.
molecule | remaining at 1 h, %
CC(C)(C)C(=O)OC[N+](C)(C)CCc1c[nH]c2ccccc12 | 104
CC[C@H]1OC(=O)[C@H](C)[C@@H](O[C@H]2C[C@@](C)(OC)[C@@H](O)[C@H](C)O2)[C@H](C)[C@@H](O[C@@H]2O[C@H](C)C[C@H](N(C)C)[C@H]2O)[C@](C)(O)C[C@@H](C)C(=O)[C@H](C)[C@@H](O)[C@]1(C)O [Erythromycin, reference compound] | 30.5

Asked: // remaining at 1 h lookup, key: CN(C)C(=O)OC[N+](C)(C)CCc1c[nH]c2ccccc12
Given back: 100

---

# protocol: physchem
# Format: physicochemical
# setupConditions: SGF without pepsin, 60 min; read-out: Remaining Percentage
Parameter remaining at 1 h: see the listing below.
All answers are understood in %, so give the number only.

These recorded examples may help you get a feel for the data.
compound | u | remaining at 1 h
CN(C)C(=O)OC[N+](C)(C)CCc1c[nH]c2ccccc12 | % | 100
CC[C@H]1OC(=O)[C@H](C)[C@@H](O[C@H]2C[C@@](C)(OC)[C@@H](O)[C@H](C)O2)[C@H](C)[C@@H](O[C@@H]2O[C@H](C)C[C@H](N(C)C)[C@H]2O)[C@](C)(O)C[C@@H](C)C(=O)[C@H](C)[C@@H](O)[C@]1(C)O [Erythromycin, reference compound] | % | 29.1

Read the next record carefully.
Asked: // remaining at 1 h lookup, key: CC(C)(C)C(=O)OC[N+](C)(C)CCc1c[nH]c2ccccc12
Given back: 97.3

---

# protocol: physchem
# Type: physicochemical
# setupConditions: pbs, pH 6.5
assayMetric: remaining at 1 h (%)
All answers are understood in %, so give the number only.

Asked: // remaining at 1 h lookup, key: O=C(O)CCCc1ccc(N(CCCl)CCCl)cc1 [Chlorambucil, reference compound]
Given back: 37.1

---

# protocol: in vitro
# Assay type: in vitro ADME
# setupConditions: mouse plasma, 60 min; read-out: Remaining Percentage
assayMetric: remaining at 1 h

These recorded examples may help you get a feel for the data.
compound | remaining at 1 h
CN(C)C(=O)OC[N+](C)(C)CCc1c[nH]c2ccccc12 | 90.2%
CC(C)(C)C(=O)OC[N+](C)(C)CCc1c[nH]c2ccccc12 | 1.13%

Asked: // remaining at 1 h lookup, key: CC(C)[N+](C)(CCOC(=O)C1c2ccccc2Oc2ccccc21)C(C)C [Propantheline, reference compound]
Given back: 35%

---

# protocol: physchem
# Type: physicochemical
# setupConditions: PBS (pH 6.5), 120 min; read-out: Remaining Percentage
Parameter remaining at 2 h: see the listing below.
All answers are understood in %, so give the number only.

compound | endpointResult
CN(C)C(=O)OC[N+](C)(C)CCc1c[nH]c2ccccc12 [Compound 1] | 107

Read the next record carefully.
Asked: // remaining at 2 h lookup, key: CC(C)(C)C(=O)OC[N+](C)(C)CCc1c[nH]c2ccccc12 [Compound 2]
Given back: 98.3

---

# protocol: in vitro
# Type: in vitro ADME
# setupConditions: mouse, plasma, text statement of Table 4 value, read-out: half-life in mouse plasma
assayMetric: half-life (h)
All answers are understood in h, so give the number only.

chemicalString | endpointResult
CN(C)C(=O)OC[N+](C)(C)CCc1c[nH]c2ccccc12 | 2.58

Asked: // half-life lookup, key: CC(C)(C)C(=O)OC[N+](C)(C)CCc1c[nH]c2ccccc12
Given back: 0.157

---

# protocol: physchem
# Type: physicochemical
# setupConditions: SGF without pepsin, 30 min; read-out: Remaining Percentage
Parameter remaining at 0.5 h: see the listing below.
All answers are understood in %, so give the number only.

These recorded examples may help you get a feel for the data.
compound | endpointResult
CN(C)C(=O)OC[N+](C)(C)CCc1c[nH]c2ccccc12 | 105
CC[C@H]1OC(=O)[C@H](C)[C@@H](O[C@H]2C[C@@](C)(OC)[C@@H](O)[C@H](C)O2)[C@H](C)[C@@H](O[C@@H]2O[C@H](C)C[C@H](N(C)C)[C@H]2O)[C@](C)(O)C[C@@H](C)C(=O)[C@H](C)[C@@H](O)[C@]1(C)O [Erythromycin, reference compound] | 54.5

Read the next record carefully.
Asked: // remaining at 0.5 h lookup, key: CC(C)(C)C(=O)OC[N+](C)(C)CCc1c[nH]c2ccccc12
Given back: 90.7

---

# protocol: in vitro
# Assay type: in vitro ADME
# setupConditions: mouse plasma, 15 min; read-out: Remaining Percentage
Parameter remaining at 0.25 h: see the listing below.
All answers are understood in %, so give the number only.

These recorded examples may help you get a feel for the data.
compound | remaining at 0.25 h / %
CC(C)[N+](C)(CCOC(=O)C1c2ccccc2Oc2ccccc21)C(C)C [Propantheline, reference compound] | 86
CN(C)C(=O)OC[N+](C)(C)CCc1c[nH]c2ccccc12 | 97.5

Read the next record carefully.
Asked: // remaining at 0.25 h lookup, key: CC(C)(C)C(=O)OC[N+](C)(C)CCc1c[nH]c2ccccc12
Given back: 24.4
